biological target: adenosine A2B receptor (Homo sapiens (Human), UniProt P29275); experiment: Adenosine receptor activity assay (Table 1), A2B activity; type: biochemical; details: A2A activity to A2B activity (A2A/A2B)
Sequence (P29275 whole entry): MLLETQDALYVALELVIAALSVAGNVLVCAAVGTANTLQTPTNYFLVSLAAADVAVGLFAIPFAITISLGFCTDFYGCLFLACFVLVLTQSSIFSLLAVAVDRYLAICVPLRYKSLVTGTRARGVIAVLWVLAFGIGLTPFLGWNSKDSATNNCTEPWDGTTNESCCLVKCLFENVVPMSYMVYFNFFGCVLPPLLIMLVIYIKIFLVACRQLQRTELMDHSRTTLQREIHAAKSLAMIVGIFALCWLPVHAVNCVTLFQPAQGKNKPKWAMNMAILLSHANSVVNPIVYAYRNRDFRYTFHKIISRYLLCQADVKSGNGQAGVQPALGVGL
Rule: measured Ratio below 20 gets rule met; anything equal to or greater than 20 gets rule not met.

Worked examples, 6 molecules total:
# Molecule, System Tested, Class Label
records = [
    ("C[C@H](Nc1nc(C(=O)NCc2cncnc2)c2sccc2n1)c1cccnc1", "adenosine A2B receptor (Homo sapiens (Human), UniProt P29275)", "rule met"),
    ("COc1ccc(CNc2nc(C(=O)N3CCCC3)c3sccc3n2)cn1", "adenosine A2B receptor (Homo sapiens (Human), UniProt P29275)", "rule met"),
    ("C[C@H](Nc1nc(C(=O)NC(CO)c2cccnc2)c2sccc2n1)c1ccccn1 (some centres unmarked)", "adenosine A2B receptor (Homo sapiens (Human), UniProt P29275)", "rule met"),
    ("CC(=O)N[C@H]1CCN(C(=O)c2nc(NCc3cncc(F)c3)nc3ccsc23)C1", "adenosine A2B receptor (Homo sapiens (Human), UniProt P29275)", "rule not met"),
    ("C[C@H](Nc1nc(C(=O)NC2CN(C(=O)OC(C)(C)C)C2)c2sccc2n1)c1ccccn1", "adenosine A2B receptor (Homo sapiens (Human), UniProt P29275)", "rule met"),
    ("C[C@H](Nc1nc(C(=O)N2CCC[C@H]2C)c2sccc2n1)c1cccnc1", "adenosine A2B receptor (Homo sapiens (Human), UniProt P29275)", "rule not met"),
]

For this molecule, is Ratio lower than 20? `O=C(c1nc(NCc2ccccc2)nc2ccsc12)N1CC[C@H](O)C1`
rule not met

For this molecule, is Ratio lower than 20? `O=C(c1nc(NCc2cncc(Cl)c2)nc2ccsc12)N1CCCC1`
rule not met
